system: AhR (Homo sapiens)
Sequence (P35869 11-848): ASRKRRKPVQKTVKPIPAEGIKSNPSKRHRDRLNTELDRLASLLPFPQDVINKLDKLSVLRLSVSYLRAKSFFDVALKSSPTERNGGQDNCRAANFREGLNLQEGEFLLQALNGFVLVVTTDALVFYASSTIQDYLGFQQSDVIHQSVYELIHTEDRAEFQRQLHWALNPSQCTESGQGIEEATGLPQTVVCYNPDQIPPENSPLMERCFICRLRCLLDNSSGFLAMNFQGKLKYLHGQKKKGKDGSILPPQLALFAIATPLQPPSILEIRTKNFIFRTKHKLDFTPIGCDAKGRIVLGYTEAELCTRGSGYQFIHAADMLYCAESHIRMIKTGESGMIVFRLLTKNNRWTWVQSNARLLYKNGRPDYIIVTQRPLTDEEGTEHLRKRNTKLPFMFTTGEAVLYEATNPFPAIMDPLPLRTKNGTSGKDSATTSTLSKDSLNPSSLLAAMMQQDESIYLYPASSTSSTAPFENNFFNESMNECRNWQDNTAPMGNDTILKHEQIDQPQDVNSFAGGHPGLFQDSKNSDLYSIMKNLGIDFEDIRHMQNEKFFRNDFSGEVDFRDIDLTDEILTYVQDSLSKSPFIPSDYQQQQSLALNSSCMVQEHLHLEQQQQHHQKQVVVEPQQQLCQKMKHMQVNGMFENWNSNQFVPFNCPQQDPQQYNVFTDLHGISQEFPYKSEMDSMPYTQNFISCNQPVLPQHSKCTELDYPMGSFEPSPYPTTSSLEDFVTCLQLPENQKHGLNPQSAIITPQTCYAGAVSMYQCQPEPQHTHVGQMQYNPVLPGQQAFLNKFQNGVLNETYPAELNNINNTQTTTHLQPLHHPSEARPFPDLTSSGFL
assay: Immunofluorescence detection of nuclear translocation of the AhR in LS180 cells
Format: cell-based
Set-up: 0.1% V/V), TCDD (10 nM), and test MICT; host or cells: LS180 cells
measurement.context: relative to TCDD-treated cells; LS180, 90 min, exp 2; same concentrations
Record form. Attribute: % relative AhR nuclei. Fill in for each entry.
Give bare numbers, in %.

Example entries begin here.
NCCc1c[nH]c2ccccc12
84
O=C(O)/C=C/c1c[nH]c2ccccc12 [IAC, indole-3-acrylate]
79
NC(=O)Cc1c[nH]c2ccccc12 [IAD, indole-3-acetamide]
95
O=C(O)C(=O)Cc1c[nH]c2ccccc12 [IPY, indole-3-pyruvate]
78

Next, consider the following compound.
Value lookup for % relative AhR nuclei; key = Cc1c[nH]c2ccccc12
94
